Origin of the recorded values: ChEMBL document CHEMBL1201862

system: NCI-H460; test: NCI tumour cell line growth inhibition, 48 h
Calls of active or inactive are those of the source. No stated cut-off is given here; in the data, active = GI50 up to about 1.1 µM and inactive = higher.
quantity_kind: GI50

Previously resolved entries follow.
[
  {
    "molecule": "CCOP(=O)(OCC)C(F)(F)c1ccc(CC(NC(=O)OC(C)(C)C)C(=O)O)cc1 (stereo unspecified)",
    "GI50": "> 10 µM (inactive)"
  },
  {
    "molecule": "CCCCCCCCCCCCCCCCCCCCCC(=O)Nc1ccn(C2OC(CO)C(O)C2O)c(=O)n1 (stereo unspecified)",
    "GI50": "2.32 µM (inactive)"
  },
  {
    "molecule": "Cc1c(C(=O)CC(=O)C(=O)Nc2ccc(Cl)c(Cl)c2)[n+]([O-])c2ccccc2[n+]1[O-]",
    "GI50": "24.7 µM (inactive)"
  },
  {
    "molecule": "CC1(O)C(C)(O)C2(C)O[Te]3(OC12C)OC1(C)C(C)(O)C(C)(O)C1(C)O3 (stereo unspecified)",
    "GI50": "3.32 µM (inactive)"
  }
]

So for `CCOP(=O)(O)C(C)(C)NC` , the logged GI50 turned out to be > 100 µM (inactive)

get_value(item= `O=C(/N=N/c1ccccc1Cl)NNc1ccccc1Cl` , readout=GI50) returns 65 µM (inactive)

* * *

test system: SNB-19; assay: NCI tumour cell line growth inhibition, 48 h
Calls of active or inactive are those of the source. No stated cut-off is given here; in the data, active = GI50 up to about 1.1 µM and inactive = higher.
Recorded GI50 by entry

Look over these answered cases.
[
  {
    "compound": "CC12CC3CC/C(=N\\O)C(C1)C3(N1CCOCC1)C/C2=N/O (stereo unspecified)",
    "GI50": "> 100 µM (inactive)"
  },
  {
    "compound": "Cc1nn(-c2ccccc2)c(C)c1/C=N/NC(=O)c1sc(=S)n(-c2ccc(Cl)cc2)c1N",
    "GI50": "> 100 µM (inactive)"
  },
  {
    "compound": "O=C1OC(=O)C([Se]c2ccccc2)=C1[Se]c1ccccc1",
    "GI50": "> 100 µM (inactive)"
  },
  {
    "compound": "O=C1c2cc3c(cc2NC(c2ccccc2F)C1O)OCO3 (stereo unspecified)",
    "GI50": "21.3 µM (inactive)"
  },
  {
    "compound": "O=C(CC1(O)C(=O)Nc2c(Cl)cc(Cl)cc21)c1cccc([N+](=O)[O-])c1 (stereo unspecified)",
    "GI50": "> 73.1 µM (inactive)"
  }
]

The compound listed as `O=C(/C=C/c1ccc(-c2ccccc2[N+](=O)[O-])o1)NCc1ccc(C(=O)NCCc2ccccc2)cc1` has a reported GI50 of > 100 µM (inactive)

Lab book: GI50 of COC(=O)C1=C(O)C(C(=O)OC)[C@]2(O)[C@H](C(=O)OC)[C@H]1C[C@@H](c1ccc(F)cc1)[C@H]2C(=O)OC (stereo partly specified) noted as 19.1 µM (inactive)

Measured GI50, `CC1(C)[C@H]2CC[C@](C)(C2)[C@]1(S)Cc1ccccn1` : > 100 µM (inactive)

Reported GI50 for `O=C(CC(=O)c1cccc([N+](=O)[O-])c1)C(=O)Nc1nc([N+](=O)[O-])cs1` was > 100 µM (inactive)

The compound listed as c1ccc2c(c1)CN1CCCC1CN2 (stereo unspecified) has a reported GI50 of > 100 µM (inactive)

Noted for `CN(C)c1ccc(/C=N/Nc2nc3ccccc3c(=O)n2-c2ccccc2)cc1` : its GI50 reads 34.9 µM (inactive)

* * *

system: HT-29; experiment: NCI tumour cell line growth inhibition, 48 h
Calls of active or inactive are those of the source. Cut-off read from the data, not from the text of the source: active = GI50 up to about 1.1 µM and inactive = higher.
# valid calls are true (1) = active, false (0) = inactive; nothing else

[
  {
    "compound": "CCOP(=O)(OCC)C(F)(F)Cc1cnc(C)c2c1COC(C)(C)O2",
    "measured_target": "HT-29",
    "discrete_label": "false (0)"
  },
  {
    "compound": "CCCCCCCCC1C(C)c2c([nH]c3ccccc23)C2C(=O)N(c3ccccc3)C(=O)C21 (centres undefined)",
    "measured_target": "HT-29",
    "discrete_label": "false (0)"
  }
]

Task item: Outcome logged for C=C1C2CC(OC(C)=O)C3(C)C(c4ccoc4)OC(=O)[C@@H](O)[C@]13OC1C[C@H](OC(C)=O)C(C)(C)[C@H](C(O)C(=O)OC)[C@]12C (some centres undefined) in this assay:
Reply: false (0)

Task item: // outcome(item) with item = COc1cc2c(cc1OC(=O)CC(C)O)C1C(OC2=O)C(OC(C)=O)C=C2CCN(C)[C@H]21 (some centres undefined)
Reply: false (0)

Task item: What did the test return for `OCSc1nn(CO)c(=S)s1` ?
Reply: false (0)

Task item: How did this test come out for `CCN(CC)c1ccc2cc(C(=O)Nc3cccc4ccccc34)c(=N)oc2c1` ?
Reply: false (0)

Task item: Which outcome did this test record for the compound `O=NN(CCCl)C(=O)N[C@H]1CC[C@H](CC(=O)O)CC1` ?
Reply: false (0)

Task item: Just curious, what result did `O=c1[nH]c2ccc([N+](=O)[O-])c(Cl)c2c2ccccc12` get here?
Reply: true (1)

Task item: Short answer needed: outcome of this test for `Cc1ccnc(NS(=O)(=O)c2ccc(NC(=O)c3ccc4nc5ccccc5c(Nc5ccc(S(=O)(=O)Nc6nccc(C)n6)cc5)c4c3)cc2)n1` ?
Reply: false (0)

* * *

test system: UACC-257; assay: NCI tumour cell line growth inhibition, 48 h
Calls of active or inactive are those of the source. Cut-off read from the data, not from the text of the source: active = GI50 up to about 1.1 µM and inactive = higher.
quantity_kind: GI50

Worked cases, answers included:
[
  {
    "compound": "CC1(CO)COC(C)(C)OC1",
    "result": "> 100 µM (inactive)"
  },
  {
    "compound": "Cc1cccc(NC(=S)NNC(=O)c2cc(-c3ccccc3)nc3ccccc23)c1",
    "result": "33.4 µM (inactive)"
  },
  {
    "compound": "Cc1cc(NCCCCCCCCNc2cc(C)nc3cc(N(C)C)ccc23)c2ccc(N(C)C)cc2n1",
    "result": "3.94 µM (inactive)"
  },
  {
    "compound": "NC(Cc1ccc(S(=O)(=O)O)cc1)C(=O)NC(Cc1ccc(S(=O)(=O)O)cc1)C(=O)NC(Cc1ccc(S(=O)(=O)O)cc1)C(=O)O (centres undefined)",
    "result": "> 100 µM (inactive)"
  },
  {
    "compound": "C/C(=N/N)c1ccc2[nH]c3c(C)cc([N+](=O)[O-])c(C)c3c2c1",
    "result": "18.6 µM (inactive)"
  },
  {
    "compound": "COc1cc2c(cc1OCCCCOc1cc3nc(C)nc(Cl)c3cc1OC)N=C[C@@H]1CCCN1C2=O",
    "result": "2.29 µM (inactive)"
  },
  {
    "compound": "CC(=O)OC1CCC2(C)C(=CCC3C2CCC2(C)C(C(C)C(=O)O)CCC32)C1 (centres undefined)",
    "result": "> 100 µM (inactive)"
  },
  {
    "compound": "Cc1ncc([N+](=O)[O-])n1CC(O)Cn1ccnc1[N+](=O)[O-] (centres undefined)",
    "result": "> 100 µM (inactive)"
  }
]

Now look at this one.
For record `NS(=O)(=O)c1nnc(NC(=O)Nc2ccc(Cl)c(Cl)c2)s1` the listed GI50 is 16.5 µM (inactive)

* * *

Listed molecules paired with reported GI50
tested on: UACC-257; test: NCI tumour cell line growth inhibition, 48 h
Calls of active or inactive are those of the source. Cut-off read from the data, not from the text of the source: active = GI50 up to about 1.1 µM and inactive = higher.

# example entries with known answers
[
  {
    "molecule": "COc1cc(-c2nc(N)c(C#N)c3c2CCS(=O)(=O)c2ccc(C)cc2-3)cc(OC)c1OC",
    "result": "> 100 µM (inactive)"
  },
  {
    "molecule": "NC(=O)NC(=O)c1cccc(CNc2ccc(C(=O)N[C@@H](CCC(=O)O)C(=O)O)cc2)n1",
    "result": "> 100 µM (inactive)"
  },
  {
    "molecule": "CCOC(=O)CCC(NC(=O)c1ccc(Nc2cnc3ccc(C(F)(F)F)cc3n2)cc1)C(=O)OCC (centres undefined)",
    "result": "> 74.3 µM (inactive)"
  },
  {
    "molecule": "C/C=C/C=C\\C1OC(O)([C@H](CC)C(=O)NC/C=C/C=C(\\C)[C@H](OC)C(C)C2OC(\\C=C/C=C/C=C(\\C)C(=O)c3c(O)ccn(C)c3=O)[C@H](O)[C@@H]2O)C(O)C(O)C1(C)C (some centres undefined)",
    "result": "> 100 µM (inactive)"
  }
]

The molecule identified as `CCCCCCCCNC(=O)C1=C(C)NC(C)=C(C(=O)NCCCCCCCC)C1` registered its GI50 at > 100 µM (inactive)

Notebook: O=C(c1ccccc1)C1N=NCC1c1ccc([N+](=O)[O-])cc1 (centres undefined) , GI50 read as 27 µM (inactive)

Reported GI50 of `O=C(O)c1cc(C(=O)O)cc(N2C(=O)c3ccccc3C2=O)c1` : > 100 µM (inactive)

Query `O=c1c(-c2ccccc2)nnc2n(Cc3ccccc3)c3ccccc3n12` yields GI50 of > 100 µM (inactive)

# GI50 (molecule: CC12CC3CC/C(=N\O)C(C1)C3(N1CCOCC1)C/C2=N/O (centres undefined) ) is > 100 µM (inactive)
